Data provenance: paper PMC4850295

tested on: GCaMP5-expressing T. gondii; construct: whole extracellular parasites expressing GCaMP5 Ca2+ sensor; parameters: species or system GCaMP5-expressing Toxoplasma gondii, extracellular; GCaMP5 fluorescence (cytosolic Ca2+) after 100 uM zaprinast in compound-pretreated extracellular parasites, background-subtracted, relative to zaprinast alone; details: 100 uM zaprinast stimulation; 10 min pretreatment; mean of two replicates; 0.23 h
Listing: fold change in fluorescence relative to zaprinast alone of selected compounds
Reply: number alone, nothing else.

What fold change in fluorescence relative to zaprinast alone value was documented for this compound, Nc1ccc(C#Cc2cncnc2Nc2ccc(OCc3cccc(F)c3)c(Cl)c2)cc1 [GW659893X] ?
0.972

And the next one, CC(=O)c1c(-c2ccncc2)[nH]c(-c2ccncc2)c1C [GW493036X] ?
1.057

And the next one, Fc1ccc(-c2nn3ncccc3c2-c2ccnc(Nc3ccc4c(c3)OCCO4)n2)cc1 [Inh1] ?
-0.1251

* * *

test system: GCaMP5-expressing T. gondii; construct: whole extracellular parasites expressing GCaMP5 Ca2+ sensor; parameters: species or system GCaMP5-expressing Toxoplasma gondii, extracellular; GCaMP5 fluorescence (cytosolic Ca2+) after 100 uM zaprinast in compound-pretreated extracellular parasites, background-subtracted, relative to zaprinast alone; settings: 100 uM zaprinast stimulation; 10 min pretreatment; mean of two replicates; 0.23 h
The label is class 1 for fold change in fluorescence relative to zaprinast alone below 0.9 and class 0 for fold change in fluorescence relative to zaprinast alone equal to or exceeding 0.9.

// below: answered compounds
compound	category
CN1CCN(C(=O)c2ccc(NC(=O)Nc3ccc(N(C)c4ccnc(Nc5ccc(CS(C)(=O)=O)cc5)n4)cc3)cc2)CC1 [GW830263A]	class 0
COC(=O)C(Cc1ccccc1)NC(=O)NC1CCN(c2ccnc(Nc3ccc(F)cc3)n2)C1 (centres unmarked) [GSK1379714A]	class 1
Cc1ccc(C(=O)NC2CCC2)cc1-c1ccc(C(=O)NCC2CC2)cc1 [GW782912X]	class 0
O=C(NCCNc1ccnc(Nc2ccc(F)cc2)n1)c1cc2ccccc2s1 [GSK1379874A]	class 1
CCn1c(-c2nonc2N)nc2c(C#CC(C)(C)O)ncc(OC[C@@H]3CCCN3)c21 [GSK614526A]	class 0
COc1ccc(CNC(=O)c2ccc(-c3cc(-c4nnc(C)o4)ccc3C)cc2)cc1 [GW701032X]	class 0

In the record for c1ccc(Oc2ccc(Nc3ccnc4cc(-c5ccc(CNCCN6CCOCC6)o5)ccc34)cc2)nc1 [GW567145X] , is fold change in fluorescence relative to zaprinast alone less than 0.9?
class 1

And the next one, Cc1cccc2c(-c3ccncc3)c(-c3ccc(F)cc3)nn12 [GW461487A] ?
class 1

And the next one, Nc1ncc(-c2cccnc2)c2scc(-c3ccc4c(c3)CCN4C(=O)Cc3ccccc3)c12 [GSK683281A] ?
class 0

And the next one, CCS(=O)(=O)c1ccc(OC)c(Nc2ncc(-c3cccc(-c4ccccc4F)c3)o2)c1 [GW678313X] ?
class 0

And the next one, NCC(NCc1ccc(-c2ccnc3[nH]ccc23)s1)c1ccccc1 (centres unmarked) [GSK1321565A] ?
class 1

And the next one, O=C(Nc1cccc(-c2nn3ccccc3c2-c2ccnc(Nc3cccc(F)c3)n2)c1)c1c(F)ccc(F)c1Cl [GSK357952A] ?
class 0

And the next one, Cc1cccc2c(-c3ccncn3)c(-c3ccc(F)cc3)nn12 [GW515532X] ?
class 1

And the next one, Cc1c2ccc(N(C)c3ccnc(Nc4cccc(S(N)(=O)=O)c4)n3)cc2nn1Cc1ccccc1 [GW787226A] ?
class 0
